Target or system Tyrosine-protein phosphatase non-receptor type 7 (Homo sapiens, UniProt P35236); recorded quantity IC50.

>  <molecule_smiles>
O=C(O)c1cc(-c2ccc(/C=C3\Sc4ccccc4C3=O)o2)ccc1O

>  <IC50>
28.7 µM

$$$$
>  <molecule_smiles>
Cc1cc(C(=O)O)ccc1-c1ccc(C=C2C(=O)c3ccccc3C2=O)o1

>  <IC50>
39.8 µM

$$$$

====

molecular target: Tyrosine-protein phosphatase non-receptor type 5 (Homo sapiens, UniProt P54829); test: Inhibition of STEP (unknown origin)
Sequence (P54829 whole entry): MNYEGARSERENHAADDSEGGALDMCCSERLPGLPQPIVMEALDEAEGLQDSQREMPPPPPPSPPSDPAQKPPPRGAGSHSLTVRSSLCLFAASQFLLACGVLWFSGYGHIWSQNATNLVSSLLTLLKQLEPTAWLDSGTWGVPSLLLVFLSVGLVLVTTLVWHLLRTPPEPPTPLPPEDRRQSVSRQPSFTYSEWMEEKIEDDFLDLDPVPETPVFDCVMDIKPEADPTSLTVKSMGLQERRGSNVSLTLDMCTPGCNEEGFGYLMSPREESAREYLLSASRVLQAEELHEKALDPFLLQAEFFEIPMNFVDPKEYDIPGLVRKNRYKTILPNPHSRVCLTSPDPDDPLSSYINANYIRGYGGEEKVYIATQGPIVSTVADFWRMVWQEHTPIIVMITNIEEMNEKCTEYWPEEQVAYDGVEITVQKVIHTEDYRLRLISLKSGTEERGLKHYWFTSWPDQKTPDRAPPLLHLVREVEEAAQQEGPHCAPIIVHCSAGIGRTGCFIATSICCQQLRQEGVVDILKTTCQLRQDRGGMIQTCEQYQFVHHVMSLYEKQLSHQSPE
quantity: Ki (µM)

>  <compound>
O=P(O)(O)C(F)(c1ccc(-c2cccc(Cc3cc(Cl)c(Cl)cc3Cl)c2F)cc1)S(=O)(=O)N1CCOCC1 (single isomer, unassigned; (-))

>  <experimental_target>
Tyrosine-protein phosphatase non-receptor type 5 (Homo sapiens, UniProt P54829)

>  <quantity>
Ki

>  <value_unit>
µM

>  <reported_result>
0.11

$$$$
